system: GP2D (KRAS G12D) cells; assay: 2D cell viability assay (CellTiter-Glo); type: cell-based; settings: GP2d, 96 h, 4 days
endpoint: log10 EC50 (log10 of the value in nM)
Scale: log10; quantity: EC50; unit before log: nM

compound	testTarget	log10 EC50
C#Cc1c(F)ccc2cc(O)cc(-c3nc4c5c(nc(OC[C@@]67CCCN6[C@H](COC(C(F)(F)F)(C(F)(F)F)C(F)(F)F)CC7)nc5c3F)N3C[C@H]5CC[C@H](N5)[C@H]3CO4)c12	GP2D (KRAS G12D) cells	-0.10
C#Cc1c(F)ccc2cccc(-c3nc4c5c(nc(OCC6(CN7CCC8(CC7)CC8(F)F)CC6)nc5c3F)N3C[C@H]5CC[C@H](N5)[C@@H]3[C@@H](C)C4)c12	GP2D (KRAS G12D) cells	2.00
C#Cc1c(F)ccc2cc(O)cc(-c3nc4c5c(nc(OCC67CCCN6C[C@H](OC(F)(F)F)C7)nc5c3F)N3C[C@H]5CC[C@H](N5)[C@H]3CC4)c12 (some centres unmarked)	GP2D (KRAS G12D) cells	1.24

Suppose we examine the compound C#Cc1c(F)ccc2cc(O)cc(-c3nc4c5c(nc(OC[C@@]67CCCN6C[C@H](F)C7)nc5c3F)N3C[C@H]5CC[C@H](N5)[C@H]3CO4)c12 ; what log10 EC50 value has been reported?
0.78

Again, but for C#Cc1c(F)c(F)cc2cc(O)cc(-c3nc4c5c(nc(OC[C@@]67CCCN6C[C@H](F)C7)nc5c3F)N3C[C@H]5CC[C@H](N5)[C@H]3CO4)c12
1.04

---

target: GDP-loaded KRAS G12D (Homo sapiens (Human), UniProt P01116, G12D); experiment: KRAS G12D (GDP) biochemical assay (TR-FRET probe displacement); conditions: 2 hours
Sequence (P01116-2 other isoform, or with tags, fused parts or gaps G12D): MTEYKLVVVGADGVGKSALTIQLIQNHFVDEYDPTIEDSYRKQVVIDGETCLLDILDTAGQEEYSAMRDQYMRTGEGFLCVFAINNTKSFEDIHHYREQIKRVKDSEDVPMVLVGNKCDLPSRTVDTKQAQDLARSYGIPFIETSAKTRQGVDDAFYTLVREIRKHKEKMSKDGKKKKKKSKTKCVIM
Could you please mark Yes for values of IC50 below 0.2 nM and No for values at or above it?

Solved cases (6 shown):
compound	cat
C#Cc1c(F)ccc2cc(O)cc(-c3nc4c5c(nc(OC[C@@]67CCCN6[C@H](COC(C(F)(F)F)(C(F)(F)F)C(F)(F)F)CC7)nc5c3F)N3C[C@H]5CC[C@H](N5)[C@H]3CCC4)c12	No
C#Cc1c(F)ccc2cccc(-c3nc4c5c(nc(OC[C@@]67CCCN6[C@H](COc6cnnc(C(F)(F)F)c6)CC7)nc5c3F)N3C[C@H]5CC[C@H](N5)[C@H]3CCC4)c12	Yes
C#Cc1c(F)ccc2cc(O)cc(-c3nc4c5c(nc(OCC6(CN7CCCOCC7)CC6)nc5c3F)N3C[C@H]5CC[C@H](N5)[C@H]3CO4)c12	No
C#Cc1c(F)ccc2cc(O)cc(-c3nc4c5c(nc(OC[C@@]67CCCN6C[C@H](F)C7)nc5c3F)N3C[C@H]5CC[C@H](N5)[C@@H]3CCO4)c12	No
C#Cc1c(F)ccc2cc(O)cc(-c3nc4c5c(nc(OCC6(CN7CC8CC8C7)CC6)nc5c3F)N3C[C@H]5CC[C@H](N5)[C@H]3CC4)c12 (stereo partly drawn)	Yes
C#Cc1c(F)ccc2cccc(-c3nc4c5c(nc(OC[C@@]67CCCN6[C@H](COc6cccc(S(F)(F)(F)(F)F)c6)CC7)nc5c3F)N3C[C@H]5CC[C@H](N5)[C@@H]3[C@@H](C)C4)c12	No

Criterion: IC50 strictly below 0.2 nM. Is it met by C#Cc1c(F)ccc2cccc(-c3nc4c5c(nc(OC[C@@]67CCCN6[C@H](COc6nccnc6C(F)F)CC7)nc5c3F)N3C[C@H]5CC[C@H](N5)[C@H]3CCC4)c12 ?
Yes

Again, but for C#Cc1c(F)ccc2cc(O)cc(-c3nc4c5c(nc(OCC6(CN7CCC[C@H](F)C7)CC6)nc5c3F)N3C[C@H]5CC[C@H](N5)[C@H]3CO4)c12
No

Again, but for C#Cc1c(F)ccc2cc(O)cc(-c3nc4c5c(nc(OC[C@]67CC(=C)CN6C[C@H](F)C7)nc5c3F)N3C[C@H]5CC[C@H](N5)[C@H]3CO4)c12
No

Again, but for CCc1c(F)ccc2cccc(-c3nc4c5c(nc(OC[C@@]67CCCN6C[C@H](F)C7)nc5c3F)N3C[C@H]5CC[C@H](N5)[C@@H]3[C@@H](C)C4)c12
No

Again, but for Oc1cc(-c2nc3c4c(nc(OC[C@@]56CCCN5C[C@H](F)C6)nc4c2F)N2C[C@H]4CC[C@H](N4)[C@H]2CC3)c2c(CC(F)(F)F)c(F)ccc2c1
No

Again, but for C#Cc1c(F)ccc2cc(O)cc(-c3nc4c5c(nc(OCC6(CN7CC[C@@H](C(F)(F)F)C7)CC6)nc5c3F)N3C[C@H]5CC[C@H](N5)[C@H]3CC4)c12
Yes

Again, but for Oc1cc(-c2nc3c4c(nc(OC[C@@]56CCCN5C[C@H](F)C6)nc4c2F)N2CC4CCC(N4)[C@@H]2CO3)c2ccccc2c1 (stereo in doubt)
No

---

system: GP2D (KRAS G12D) cells; assay: 2D cell viability assay (CellTiter-Glo); format: cell-based; settings: GP2d, 96 h, 4 days
# Lookup of reported pEC50 keyed by entry
The quantity pEC50 is defined as the negative base-10 logarithm of the molar concentration.

compound	testTarget	pEC50
CCc1c(F)ccc2cc(O)cc(-c3cc4c5c(nc(OC[C@@]67CCCN6C[C@H](F)C7)nc5c3F)N3C[C@H]5CC[C@H](N5)[C@H]3CC4)c12	GP2D (KRAS G12D) cells	8.39

Could you now consider this next compound?
Suppose we examine the compound C#Cc1c(F)ccc2cccc(-c3nc4c5c(nc(OC[C@@]67CCCN6[C@H](COC(C6CC6)C(F)(F)F)CC7)nc5c3F)N3C[C@H]5CC[C@H](N5)[C@H]3CC4)c12 (some centres unmarked) ; what pEC50 value has been reported?
7.16

---

# Lookup of reported EC50 keyed by entry
system: GP2D (KRAS G12D) cells; assay: 2D cell viability assay (CellTiter-Glo); format: cell-based; conditions: GP2d, 96 h, 4 days
Lab book: enter the figure in nM, no units written.

Recorded EC50, per entry:
compound	testTarget	EC50 (nM)
Oc1cc(-c2nc3c4c(nc(OC[C@@]56CCCN5C[C@H](F)C6)nc4c2F)N2C[C@H]4CC[C@H](N4)[C@H]2CO3)c2c(C=C(F)F)c(F)ccc2c1 [Example 10]	GP2D (KRAS G12D) cells	250
Fc1ccc2cccc(-c3nc4c5c(nc(OCC6(CN7CCC(OC(F)(F)F)CC7)CC6)nc5c3F)N3C[C@H]5CC[C@H](N5)[C@H]3CC4)c2c1OC(F)(F)F [Example 120]	GP2D (KRAS G12D) cells	1000

Could you now consider this next compound?
Suppose we examine the compound C#Cc1c(F)ccc2cccc(-c3nc4c5c(nc(OC[C@@]67CCCN6C[C@H](F)C7)nc5c3F)N3C[C@H]5CC[C@H](N5)[C@H]3CC[C@@H]4C)c12 [Example 174] ; what EC50 value has been reported?
100

---

target: GDP-loaded KRAS G12D (Homo sapiens (Human), UniProt P01116, G12D); assay: KRAS G12D (GDP) biochemical assay (TR-FRET probe displacement); assay type: binding; settings: 2 hours
pIC50: −log10 of the molar value.
Use Yes when the recorded pIC50 is no lower than 9; use No when it is lower.

Solved cases (3 shown):
molecule	cat
C#Cc1c(F)ccc2cccc(-c3nc4c5c(nc(OCC67CC8(CC8)CN6CC6(CC6)C7)nc5c3F)N3C[C@H]5CC[C@H](N5)[C@@H]3[C@@H](C)C4)c12	No
C#Cc1c(F)ccc2cc(O)cc(-c3nc4c5c(nc(OC[C@@]67CCCN6C[C@H](F)C7)nc5c3F)N3C[C@H]5CC[C@H](N5)[C@@H]3CCC4)c12	Yes
C#Cc1c(F)ccc2cccc(-c3nc4c5c(nc(OC[C@@]67CCCN6C[C@H](F)C7)nc5c3F)N3C[C@H]5CC[C@H](N5)C3C[C@@H]4C)c12 (stereo in doubt)	No

Please examine the following record next.
State whether the measured pIC50 reaches 9, counting equality as reaching it, for C#Cc1c(F)ccc2cc(O)cc(-c3nc4c5c(nc(OCC6(CN7CCC(OC(F)(F)F)CC7)CC6)nc5c3F)N3C[C@H]5CC[C@H](N5)[C@H]3CCC4)c12
Yes

---

Test system: GP2D (KRAS G12D) cells
Test: 2D cell viability assay (CellTiter-Glo)
Assay type: cell-based
Conditions: GP2d, 96 h, 4 days
Protocol: Example B. 2D Cell Viability Assay Compounds were tested in a 384-well format for their ability to inhibit the viability of GP2D (KRAS G12D) cells in 2D assays. Compounds were serially diluted (1:3) in DMSO. The LabCyte ECHO Acoustic dispenser system was used to pre-spot assay plates with 200 nL of test molecule per well. […] The plates were incubated at 37° C., 5% CO2 for 4 days before addition of CellTiter-Glo (CTG) reagent and measurement of luminescence signal. […]
pEC50: −log10 of the molar value.
Use yes (1) when the recorded pEC50 is no lower than 7; use no (0) when it is lower.

Solved cases (2 shown):
molecule	testTarget	cat
C#Cc1c(F)ccc2cc(O)cc(-c3nc4c5c(nc(OC[C@@]67CCCN6[C@H](COC(=O)N6CCCCCC6)CC7)nc5c3F)N3C[C@H]5CC[C@H](N5)[C@H]3CO4)c12 [Example 38]	GP2D (KRAS G12D) cells	yes (1)
Oc1cc(-c2nc3c4c(nc(OC[C@@]56CCCN5C[C@H](F)C6)nc4c2F)N2C[C@H]4CC[C@H](N4)[C@@H]2CO3)c2ccccc2c1 [Example 19]	GP2D (KRAS G12D) cells	no (0)

State whether the measured pEC50 reaches 7, counting equality as reaching it, for C#Cc1c(F)ccc2cc(O)cc(-c3nc4c5c(nc(OCC6(CN7CC[C@H](OC(F)(F)F)C7)CC6)nc5c3F)N3C[C@H]5CC[C@H](N5)[C@H]3CCC4)c12 [Example 162]
yes (1)
